- Tested on: CD2F1 mice, L1210 leukemia ip, survival T/C
- assay: NCI In Vivo Anticancer Drug Screen. Data for tumor model L1210 Leukemia (intraperitoneal) in CD2F1 (CDF1) mice
- condition_parameters: endpoint: mean survival time; dose: 200.0 mg/kg/injection; schedule: Q04DX003 (ip); vehicle: saline with Tween-80; higher = longer survival
Toxic doses and inconclusive results are not listed.
Exercise: state measured T/C for each of the molecules provided.

                                   molecule  assay_endpoint           result
0                         O=Nc1sc2ccccc2c1O             T/C  96 % of control
1  N#C/C(=C\c1c(O)ccc2ccccc12)c1ccc([N+](=O)[O-])cc1             T/C  94 % of control
2  COC1(c2ccccc2)C(c2ccccc2)=CC(=O)/C1=C\c1ccccc1 (configuration not stated)             T/C  91 % of control

Provide T/C values for the following items, in order.
1. Cc1cccc(/C=N\N=C\c2cccc(C)n2)n1
2. CC(=O)NC(CSCC(=O)c1ccccc1)C(=O)O (configuration not stated)
3. CC1C2C=CC1C(c1c3ccc(=O)cc-3oc3cc(O)ccc13)C2C(=O)O (configuration not stated)
4. C/C=C/c1ccc(OC(C)=O)c(OC)c1
5. CC(=O)Nc1c([N+](=O)[O-])cc2c3c(cccc13)CC2
6. CCCCCC(=O)C(C)CC (configuration not stated)
7. O=C(COc1ccc(Cl)c(Cl)c1)Nc1cccc(C(=O)CCl)c1
8. CCCCCC(CN(C)C)C(/C=C/c1ccccc1)OC(=O)c1ccc([N+](=O)[O-])cc1 (configuration not stated)

1: 91 % of control; 2: 102 % of control; 3: 97 % of control; 4: 100 % of control; 5: 102 % of control; 6: 104 % of control; 7: 101 % of control; 8: 105 % of control

For this molecule ( NC(=O)C(NCc1ccccc1)c1ccccc1 (configuration not stated) ), measured T/C is 99 % of control

====

- Tested on: CD2F1 mice, L1210 leukemia ip, survival T/C
- assay: NCI In Vivo Anticancer Drug Screen. Data for tumor model L1210 Leukemia (intraperitoneal) in CD2F1 (CDF1) mice
- condition_parameters: endpoint: mean survival time; dose: 200.0 mg/kg/injection; schedule: Q01DX001 (ip); vehicle: saline with Tween-80
Toxic doses and inconclusive results are not listed. How the source made its calls: active means survival T/C of 150% or more; inactive means T/C below 125% in these data.
A correct response names exactly one class from active, inactive

                                   molecule  group_label
0  CCOC(=O)C/C(C)=C/c1ccccc1 (tested in a mixture with another compound)     inactive
1          COC(=O)c1ccc(I)c([N+](=O)[O-])c1     inactive

Test call, this molecule: CCOc1nc2nc[nH]c(=O)c2cc1C#N
inactive

Test call, this molecule: C/C(=N\Nc1ccc([N+](=O)[O-])cc1[N+](=O)[O-])C1CCC(=O)O1 (configuration not stated)
inactive

Test call, this molecule: Cc1cccc(Oc2ccc(C(F)(F)F)cc2[N+](=O)[O-])c1
inactive

Test call, this molecule: Cc1cccc(N=Cc2ccccc2O)c1
inactive

Test call, this molecule: CCOC(=O)c1c2cccccc-2c(C#N)c1O
inactive

Test call, this molecule: Cc1ccc(-n2c(O)c(N=Nc3ccccc3)c(=O)n(-c3ccccc3)c2=S)cc1
inactive

Test call, this molecule: CC(C)(C)OC1C2C=CC1C=C2 (configuration not stated)
inactive

Test call, this molecule: CCC(=O)O[C@H]1CC[C@H]2[C@@H]3[C@@H](C)CC4=CC(=O)CC[C@]4(C)[C@H]3CC[C@]12C
inactive

Test call, this molecule: [Cl][Pt+2][Cl].c1ccc(CC2CC[N-]CC2)cc1.c1ccc(CC2CC[N-]CC2)cc1
inactive

Test call, this molecule: CC(=O)Oc1cc(N=[N+]=[N-])c(OC(C)=O)cc1C
inactive

Test call, this molecule: Cc1ccc(S(=O)(=O)OC2COC3C(OS(=O)(=O)c4ccc(C)cc4)COC23)cc1 (configuration not stated)
inactive

Test call, this molecule: CCOC(=O)c1cnc(SC)nc1NCc1ccc(Cl)cc1
inactive

Test call, this molecule: Nc1nc(N)c(-c2ccc(Cl)c(Cl)c2)c(CCc2ccc(NC(=O)Nc3ccc(S(=O)(=O)F)cc3)cc2)n1
inactive
